- Experimental Target: Lon protease (Escherichia coli (strain K12))
- Assay Procedure: inhibition of eLon from E. coli – biochemical, fluorescence polarization, confirmation (AID 602230);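 note: 0% = enzyme with probe and DMSO and 100% = no enzyme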
- Conditions Used: purified E. coli Lon, at 7.94 µM, active compounds read high
Hit rate of the full screen: of about 1,400 compounds, about 450 (32%) were called active. A selection follows.
Reported Property: inhibition (%)
The reply should contain only the number, in %.

O=C(C1=C(O)C(=O)N(c2ncccn2)C1c1cccs1)c1ccco1 (stereo not given)	7.23
CCCN(CCC)C(=O)C1c2ccccc2Oc2ccccc21	-11.4
Cc1cccc(N2CCC(NCc3c(C(=O)N4CCCCC4)nc4c(C)cccn34)CC2)c1	-4.25

Query block: Look up inhibition for this compound: COc1ccc(C2c3ccc(O)cc3Oc3ncn(CCCO)c(=N)c32)cc1OC (stereo not given)
Result block: -7.63

Query block: Check Cc1cc2nc3c(=O)n(Cc4ccccc4)c(=O)[nH]c3nc2cc1N too.
Result block: 153
